# Assay text: Standard protocol for determination of kcat and KM (continuous spectrophotometric assay, Acetyl CoA hydrolysis at 235 nm)
# Type: biochemical
# Conditions: purified protein; about 23° C.; pH 6.8; 0.2 mM acetyl CoA; glyphosate 0.125 to 10 mM
# Method: KM was calculated from the initial reaction rates obtained from concentrations of glyphosate ranging from 0.125 to 10 mM, using the Lineweaver-Burke transformation of the Michaelis-Menten equation. kcat/KM was determined by dividing the value determined for kcat by the value determined for KM. Using this methodology, kinetic parameters for a number of GAT polypeptides exemplified herein were determined. […]
Km strictly less than 800 µM = Condition met. Otherwise Condition not met.

* SEQ ID NO: 299: GAT polypeptide (protein, 13_12G12, GAT polypeptide) MIEVKPINAEDTYEIRHRILRPNQPLEACMYETDLLGGTFHLGGYYRGKLISIASFNQAEHPELEGQKQYQLRGMATLEEYREQKAGSTLIRHAEELLRKKGADLLWCNARTSASGYYKKLGFSEQGEVYDIPPVGPHILMHKKLT | Condition met
* SEQ ID NO: 395: GAT polypeptide (protein, 6_21F4, GAT polypeptide) MIEVKPINAEDTYEIRHRVLRPNQPLEACMYETDLLGGAFHLGGYYRGKLISIASFHQAEHPELEGQKQYQLRGMATLEGYREQKAGSTLIRHAEELLRKKGADLLWCNARTSASGYYKKLGFSEQGEVYDVPPVGPHILMYKKLT | Condition met
* SEQ ID NO: 450: GAT polypeptide (protein, 0_6F2, GAT polypeptide) MIEVKPINAEDTYELRHRILRPNQPIEACMYESDLLRGAFHLGGYYRGKLISIASFHQAEHSELQGQKQYQLRGMATLEGFREQKAGSTLIRHAEQILRKRGADMLWCNARTSASGYYKKLGFSEQGEIFDTPPVGPHILMYKRIT | Condition met
* SEQ ID NO: 428: GAT polypeptide (protein, 9_21C8, GAT polypeptide) MIEVKPINAEDTYEIRHRILRPNQPLEACMYETDLLGGTFHLGGYYRGKLISIASFHQAEHPELEGQKQYQLRGMATLEGYREQKAGSTLIRHAEELLRKKGADLLWCNARTSASGYYKKLGFSDQGEVYDIPPVGPHILMYKKLT | Condition not met
* SEQ ID NO: 357: GAT polypeptide (protein, 3B_10C4, GAT polypeptide) MIEVRPINAEDTYEIRHRILRPNQPLEACMYETDLLGGTFHLGGYYRGKLISIASFHQAEHSELEGQKQYQLRGMATLEGYREQKAGSTLIRHAEELLRKKGADLLWCNARTSASGYYKKLGFSEQGEAYDIPPIGPHILMYKKLT | Condition not met
* SEQ ID NO: 384: GAT polypeptide (protein, 6_16F5, GAT polypeptide) MIEVKPINAEDTYEIRHRILRPNQPLEACMYETDLLGGTFHLGGYYRGKLISIASFHQAVHSELEGQKQYQLRGMATLEGYREQKAGSTLIRHAEELLRKKGADLLWCNARTSASGYYKKLGFSEQGGVYDIPPVGPHILMYKKLT | Condition not met
* SEQ ID NO: 365: GAT polypeptide (protein, 4A_1B11, GAT polypeptide) MIEVKPINAEDTYEIRHRILRPNQPLEACMYETDLLGGTFHLGGYYRGKLISIASFHQAEHPELEGQKQYQLRGMATLEGYREQKAGSTLIRHAEELLRKKGADLLWCNARTSASGYYEKLGFSEQGEVYDIPPIGPHILMYKKLT | Condition not met
